# Protocol details: Oral absorption in Swiss mice
# Type: in vivo
# Reported conditions: male, mouse, plasma, po, 10 mg/kg p.o.
Observed property: Cmax (nM)

NC(=O)c1[nH]c2ccc(I)cc2c1S(=O)(=O)N1CCO[C@H](COc2ccccc2)C1 [Compound 999, reference compound] ... 1200
NC(=O)c1[nH]c2ccc(Cl)cc2c1S(=O)(=O)N1CCO[C@H](COc2ccc(-c3ccncc3)cc2)C1 [Compound 32] ... 2780
Cc1cc(-c2ccc(OC[C@@H]3CN(S(=O)(=O)c4c(C(N)=O)[nH]c5ccc(Cl)cc45)CCO3)cc2)ccn1 [Compound 51] ... 2550
COc1ccc(-c2cccc(OC[C@@H]3CN(S(=O)(=O)c4c(C(N)=O)[nH]c5ccc(Cl)cc45)CCO3)c2)cn1 [Compound 7] ... 2200

[a] NC(=O)c1[nH]c2ccc(Cl)cc2c1S(=O)(=O)N1CCO[C@H](COc2cccc(-c3cccnc3F)c2)C1 [Compound 3]
[b] NC(=O)c1[nH]c2ccc(Cl)cc2c1S(=O)(=O)N1CCO[C@H](COc2ccc(-c3ccnc(Cl)c3)cc2)C1 [Compound 84]
[c] Cc1ccc(OC[C@@H]2CN(S(=O)(=O)c3c(C(N)=O)[nH]c4ccc(Cl)cc34)CCO2)cc1-c1ccccc1 [Compound 20]
[d] NC(=O)c1[nH]c2ccc(Cl)cc2c1S(=O)(=O)N1CCO[C@H](COc2cccc(-c3ccccc3)c2)C1 [Compound 1]
Hey, quick one: sort these by Cmax, largest value first please. Sort the labels as requested; that list is your answer.
d, a, c, b
(d: 8560 nM, a: 2980 nM, c: 1980 nM, b: 1240 nM)

* * *

# Target or system: intracellular kinase domain of human IGF-1R (GST fusion protein) (Homo sapiens)
# Construct: IGFRK and IRK enzyme used for the assay was intracellular kinase domain of human IGF-1R; GST
# Protocol details: In vitro IGF-1R kinase assay (HTRF)
# Reported conditions: ATP 20 μM, IGFRK 0.25 nM
Observed property: IC50 (µM)

Reference set, count: 3
COc1ccccc1-c1cc(OC[C@@H]2CN(S(=O)(=O)c3c(C(N)=O)[nH]c4ccc(Cl)cc34)CCO2)ccc1C [Compound 23] ... 0.132
NC(=O)c1[nH]c2ccc(Cl)cc2c1S(=O)(=O)N1CCO[C@H](COc2cnc(-c3ccccc3)cn2)C1 [Compound 77] ... 0.204
NC(=O)c1[nH]c2ccc(Cl)cc2c1S(=O)(=O)N1CCO[C@H](COc2cccc(-c3ccnc(Cl)c3)c2)C1 [Compound 85] ... 0.0097

[a] Cc1cc(OC[C@@H]2CN(S(=O)(=O)c3c(C(N)=O)[nH]c4ccc(Cl)cc34)CCO2)ccc1-c1cncnc1 [Compound 71]
[b] NC(=O)c1[nH]c2ccc(Cl)cc2c1S(=O)(=O)N1CCO[C@H](COc2ccc(-c3cccnc3)cc2)C1 [Compound 31]
Lab note: check whether a or b shows the higher recorded IC50. State your choice using its label.
b
(b: 0.0087 µM, a: 0.0053 µM)

* * *

# Target or system: intracellular kinase domain of human IGF-1R (GST fusion protein) (Homo sapiens, UniProt P08069)
# Construct: IGFRK and IRK enzyme used for the assay was intracellular kinase domain of human IGF-1R; GST
# Sequence (P08069 999-1274 limits assumed): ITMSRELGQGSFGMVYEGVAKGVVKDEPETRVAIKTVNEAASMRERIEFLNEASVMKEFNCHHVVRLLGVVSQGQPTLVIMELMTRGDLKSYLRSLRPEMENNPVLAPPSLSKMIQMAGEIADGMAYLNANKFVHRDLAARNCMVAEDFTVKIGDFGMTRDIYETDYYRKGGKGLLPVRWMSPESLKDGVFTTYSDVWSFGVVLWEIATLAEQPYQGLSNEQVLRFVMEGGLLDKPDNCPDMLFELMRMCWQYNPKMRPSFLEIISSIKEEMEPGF
# Protocol details: In vitro IGF-1R kinase assay (HTRF)
# Reported conditions: ATP 20 μM, IGFRK 0.25 nM
pIC50: −log10 of the molar value.
Observed property: pIC50

Reference set, count: 5
NC(=O)c1[nH]c2ccc(Cl)cc2c1S(=O)(=O)N1CCO[C@H](COc2ccc(-c3ccccc3Cl)cc2)C1 ... 7.01
Cc1cc(OC[C@@H]2CN(S(=O)(=O)c3c(C(N)=O)[nH]c4ccc(Cl)cc34)CCO2)ccc1-c1ccc(Cl)nc1 ... 7.17
NC(=O)c1[nH]c2ccc(Cl)cc2c1S(=O)(=O)N1CCO[C@H](COc2ccc(-c3ccnc(Cl)c3)cc2)C1 ... 7.73
Cc1ccc(OC[C@@H]2CN(S(=O)(=O)c3c(C(N)=O)[nH]c4ccc(Cl)cc34)CCO2)cc1-c1ccccc1 ... 6.85
Cc1cc(-c2ccc(OC[C@@H]3CN(S(=O)(=O)c4c(C(N)=O)[nH]c5ccc(Cl)cc45)CCO3)cc2)cc(C)n1 ... 7.88

[1] NC(=O)c1[nH]c2ccc(Cl)cc2c1S(=O)(=O)N1CCO[C@H](COc2ccc(-c3ccccc3F)cc2)C1
[2] COc1cc(-c2cccc(OC[C@@H]3CN(S(=O)(=O)c4c(C(N)=O)[nH]c5ccc(Cl)cc45)CCO3)c2)ccn1
Of 1 and 2 , which shows the smaller pIC50 value? State your choice using its label.
1

[a] NC(=O)c1[nH]c2ccc(Cl)cc2c1S(=O)(=O)N1CCO[C@H](COc2ccc(F)c(-c3cccnc3)c2)C1
[b] NC(=O)c1[nH]c2ccc(Cl)cc2c1S(=O)(=O)N1CCO[C@H](COc2cccc(-c3ccc(Cl)nc3)c2)C1
[c] Cc1cc(OC[C@@H]2CN(S(=O)(=O)c3c(C(N)=O)[nH]c4ccc(Cl)cc34)CCO2)ccc1-c1cccnc1
Hey, quick one: sort these by pIC50, largest value first please. Sort the labels as requested; that list is your answer.
b, a, c
(b: 8.31, a: 7.95, c: 7.73)
